- Tested on: polyvalent resistant (CH strain) houseflies
- Method Summary: whole plant or invertebrate
- Format: in vivo, housefly (CH strain)
- Test Parameters: CH strain; GS 13005 1 + synergist 2 μg/fly
Observed Property: percent kill after 24 hours (%)
Numbers only, in %.

Below, 6 compounds whose answers are already recorded.
[
  {
    "Smiles Record": "C#CCON=C(C)c1ccc(Cl)cc1",
    "Target": "polyvalent resistant (CH strain) houseflies",
    "Numeric Value": 100
  },
  {
    "Smiles Record": "C#CCON=Cc1cccc2ccccc12",
    "Target": "polyvalent resistant (CH strain) houseflies",
    "Numeric Value": 47
  },
  {
    "Smiles Record": "C#CCOCc1ccc(Cl)c(Cl)c1",
    "Target": "polyvalent resistant (CH strain) houseflies",
    "Numeric Value": 75
  },
  {
    "Smiles Record": "C#CCON=Cc1ccc(Cl)cc1Cl",
    "Target": "polyvalent resistant (CH strain) houseflies",
    "Numeric Value": 100
  },
  {
    "Smiles Record": "C#CCOCc1ccc(Cl)c(Cl)c1Cl",
    "Target": "polyvalent resistant (CH strain) houseflies",
    "Numeric Value": 95
  },
  {
    "Smiles Record": "C#CCON=Cc1ccc(OC)c(OC)c1",
    "Target": "polyvalent resistant (CH strain) houseflies",
    "Numeric Value": 45
  }
]

# batch: return percent kill after 24 hours for each of the 2 compounds below
1. C#CCON=C(C)c1ccc2ccccc2c1
2. C#CCOCc1c(Cl)ccc(Cl)c1Cl

A)
[100, 100]
